- target: T1, recombinant human Fc-PD-1 protein (human, UniProt Q15116 25-170)
- T1 construct: may be the same protein as the PD-1 Fc fusion of the Luminex assays; also called recombinant human PD-1 in an Fc fusion construct; not shown: Fc part not described
- T1 sequence (Q15116 25-170): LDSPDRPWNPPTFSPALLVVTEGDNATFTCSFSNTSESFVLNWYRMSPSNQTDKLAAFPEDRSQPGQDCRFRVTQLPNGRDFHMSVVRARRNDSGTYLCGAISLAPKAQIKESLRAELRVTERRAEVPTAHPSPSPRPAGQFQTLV
- protocolNotes: Biacore, Fab, human Fc-PD-1
Items are presented alongside their recorded Kd.

>  <binder>
A35789 (Fab, V domains shown, humanized Fab clone of 135C12; also called humanized antibody A35789) VH: EVQLVQSGAEVKKPGESLKISCKGSGYSFTNFYIHWVRQMPGKGLEWMGSIYPNYGDTAYNQKFKDRVTITADKSTSTAYMELSSLRSEDTAVYYCARGYSYAMDYWGQGTTVTVSS VL: DIQMTQSPSSVSASVGDRVTITCSASQGISGDLNWYQQKPGQAPRLLIYHTSSLHSGIPARFSGSGSGTDFTLTISRLEPEDFAVYYCQYYSKDLLTFGGGTKLEIK

>  <Kd>
4.17 nM

$$$$
>  <binder>
A36443 (Fab, V domains shown, humanized Fab clone of 135C12; also called humanized antibody A36443) VH: EVQLVQSGAEVKKPGATVKISCKVSGYTFTNFYIHWVRQARGQRLEWIGSIYPNYGDTAYNQKFKDRVTITADKSTSTAYMELSSLRSEDTAVYYCARGYSYAMDYWGQGTTVTVSS VL: DIQMTQSPSSVSASVGDRVTITCSASQGISGDLNWYQQKPGQAPRLLIYHTSSLHSGVPSRFSGSGSGTEFTLTISRLEPEDFAVYYCQYYSKDLLTFGGGTKLEIK

>  <Kd>
3.02 nM

$$$$
>  <binder>
A35777 (Fab, V domains shown, humanized Fab clone of 135C12; also called humanized antibody A35777) VH: EVQLVQSGAEVKKPGATVKISCKVSGYTFTNFYIHWVRQAPGKGLEWMGSIYPNYGDTAYNQKFKDRVTITADKSTSTAYMELSSLRSEDTAVYYCARGYSYAMDYWGQGTTVTVSS VL: DIQMTQSPSTLSASVGDRVTITCSASQGISGDLNWYQQKPGQAPRLLIYHTSSLHSGVPSRFSGSGSGTDFTLTISSLQPEDFATYYCQYYSKDLLTFGGGTKLEIK

>  <Kd>
5.13 nM

$$$$
>  <binder>
A35775 (Fab, V domains shown, humanized Fab clone of 135C12; also called humanized antibody A35775) VH: EVQLVQSGAEVKKPGESLKISCKGSGYSFTNFYIHWVRQAPGQRLEWMGSIYPNYGDTAYNQKFKDRFVFSLDTSVSTAYLQISSLKAEDTAVYYCARGYSYAMDYWGQGTTVTVSS VL: DIQMTQSPSSVSASVGDRVTITCSASQGISGDLNWYQQKPGQAPRLLIYHTSSLHSGVPSRFSGSGSGTDFTLTISSLQPEDFATYYCQYYSKDLLTFGGGTKLEIK

>  <Kd>
2.54 nM

$$$$
>  <binder>
A35783 (Fab, V domains shown, humanized Fab clone of 135C12; also called humanized antibody A35783) VH: EVQLVQSGAEVKKPGESLKISCKGSGYSFTNFYIHWVRQARGQRLEWIGSIYPNYGDTAYNQKFKDRFVFSLDTSVSTAYLQISSLKAEDTAVYYCARGYSYAMDYWGQGTTVTVSS VL: DIQMTQSPSSLSASVGDRVTITCSASQGISGDLNWYQQKPGKTPKLLIYHTSSLHSGVPSRFSGSGSGTDFTLTISSLQPEDFATYYCQYYSKDLLTFGGGTKLEIK

>  <Kd>
2.55 nM

$$$$
>  <binder>
A35774 (Fab, V domains shown, humanized Fab clone of 135C12; also called humanized antibody A35774) VH: EVQLVQSGAEVKKPGESLKISCKGSGYSFTNFYIHWVRQAPGQRLEWMGSIYPNYGDTAYNQKFKDRFVFSLDTSVSTAYLQISSLKAEDTAVYYCARGYSYAMDYWGQGTTVTVSS VL: DIQMTQSPSSVSASVGDRVTITCSASQGISGDLNWYQQKPGKAPKLLIYHTSSLHSGVPSRFSGSGSGTDFTLTISSLQPEDFATYYCQYYSKDLLTFGGGTKLEIK

>  <Kd>
2.61 nM

$$$$
>  <binder>
A36437 (Fab, V domains shown, humanized Fab clone of 135C12; also called humanized antibody A36437) VH: EVQLVQSGAEVKKPGESLKISCKGSGYSFTNFYIHWVRQMPGKGLEWMGSIYPNYGDTAYNQKFKDRFVFSLDTSVSTAYLQISSLKAEDTAVYYCARGYSYAMDYWGQGTTVTVSS VL: DIQMTQSPSTLSASVGDRVTITCSASQGISGDLNWYQQKPGQAPRLLIYHTSSLHSGIPARFSGSGSGTDFTLTISSLQPEDFAVYYCQYYSKDLLTFGGGTKLEIK

>  <Kd>
4.46 nM

$$$$
>  <binder>
A36448 (Fab, V domains shown, humanized Fab clone of 135C12; also called humanized antibody A36448) VH: EVQLVQSGAEVKKPGESLKISCKGSGYSFTNFYIHWVRQMPGKGLEWMGSIYPNYGDTAYNQKFKDRFVFSLDTSVSTAYLQISSLKAEDTAVYYCARGYSYAMDYWGQGTTVTVSS VL: DIQMTQSPSTLSASVGDRVTITCSASQGISGDLNWYQQKPGKTPKLLIYHTSSLHSGVPSRFSGSGSGTDFTLTISSLQPEDFATYYCQYYSKDLLTFGGGTKLEIK

>  <Kd>
4.31 nM

$$$$
